B1: minF1; the commonest letter at each place (parent)
chain: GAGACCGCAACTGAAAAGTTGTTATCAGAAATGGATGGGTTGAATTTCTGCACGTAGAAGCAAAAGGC

# Variants of: B1
# Assay method text: fraction ligated after 30 min (ligated reads / total reads); higher = more ligase activity
# Assay context: with F1*subA RNA substrate (template-directed ligation), 42 °C
Class key for fraction ligated values: lowest: < 0.009; middle: ≥ 0.009 and < 0.1; highest: ≥ 0.1

Variant name	Qualitative label
T36A G37T	middle
T23A A24T	middle
A31C G42C	lowest
T25A G33T	lowest
G42A A43G A44G	lowest
G28A G42C	middle
T23A G28C	highest
G42A A43C A44T	lowest
T36C A43C	lowest
G28T A43G	middle
T25C A31T	middle
A31G T32A	middle
G28C A35C	middle
A29G G42C	lowest
A31G G42A	highest
T25C C26G	middle
A31G A43T	highest
C26T T36G	middle
A30G A31G	highest
G28T A31T	highest
A24C G34T	lowest
G37A A44T	lowest
T23A G37A	lowest
A30C A44C	highest
T25A A35G	lowest
T25C G28C	highest
G28T A30G	highest
T23A A29T	highest
T25G A31C	middle
A27T G37A	middle
T23G A29C	highest
T32G G33A	middle
G28C A44C	highest
C26T T36A	middle
A35G G37A	lowest
